B1: E3 ubiquitin-protein ligase NEDD4-like, residues 539 to 589; numbered along this chain, Q96PU5 (parent)
chain: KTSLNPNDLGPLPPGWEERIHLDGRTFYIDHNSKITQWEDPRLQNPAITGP

Variants of: B1
Assay: abundance fitness (aPCA) (normalised: wild type 0, dead -1); higher = more abundant; growth selection in yeast, the domain comes from the species named
Conditions: Homo sapiens
metric: abundance fitness

R42W	-1.18
I20L	-0.024
T49M	-0.091
T49E	-0.144
L4A	-0.205
P6N	0.374
D30L	-0.591
A47L	-0.083
E39I	-0.251
R25L	-0.598
N5A	-0.167
R25H	-0.382
P46W	-0.249
L12N	-0.534
K1G	-1.01
W38Y	-0.041
H21S	0.221
E18K	-0.274
I35F	-0.16
P14N	-0.355
P11T	-0.127
T26L	-0.136
P13E	-0.506
D30H	0.125
P46C	-0.098
H31Q	-0.224
E17T	-0.628
A47P	0.008
T2N	0.374
E39Y	-0.412
R25A	-0.301
N32T	-0.035
R25C	-0.393
D40G	-0.731
W38E	0.068
L12V	-0.568
Q37W	-0.564
Y28D	-0.399
N5I	-0.256
I20A	-0.069
N32H	-0.286
H31I	-0.017
H31G	-0.243
I20C	0.192
H31K	0.11
E39M	-0.245
